Values from ChEMBL document CHEMBL1152554

Assay: in vitro
Settings: mouse, liver microsomes
quantity.kind: half-life (min)
Give bare numbers, in min.

Task: Form field: reported half-life of C=C1CC[C@@]2(O)[C@H]3Cc4ccc(O)c5c4[C@@]2(CCN3CC2CC2)[C@H]1O5
Output: 20

----------
Target: Nociceptin receptor (Homo sapiens, UniProt P41146)
Sequence (P41146 whole entry): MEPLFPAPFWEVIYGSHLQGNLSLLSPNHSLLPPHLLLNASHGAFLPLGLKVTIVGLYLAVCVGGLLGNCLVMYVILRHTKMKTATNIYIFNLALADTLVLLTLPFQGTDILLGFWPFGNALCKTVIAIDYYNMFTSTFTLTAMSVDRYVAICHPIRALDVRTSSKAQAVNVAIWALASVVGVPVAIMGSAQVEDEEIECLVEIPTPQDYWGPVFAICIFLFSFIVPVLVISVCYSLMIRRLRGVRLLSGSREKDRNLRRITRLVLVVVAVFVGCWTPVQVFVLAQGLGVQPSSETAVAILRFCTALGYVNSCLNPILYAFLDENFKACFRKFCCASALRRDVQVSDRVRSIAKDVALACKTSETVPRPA
quantity.kind: Ki

Task: Notebook: pull reported Ki for Nociceptin receptor (Homo sapiens, UniProt P41146), entry O=C(N[C@@H]1CC[C@@]2(O)[C@H]3Cc4ccc(O)c5c4[C@@]2(CCN3CC2CC2)[C@H]1O5)c1ccc(Br)cc1.O=C(O)C(=O)O
Output: > 10 µM

----------
Biological target: Nociceptin receptor (Homo sapiens, UniProt P41146)
Assay: biochemical
quantity.kind: pEC50
Numbers only, as −log10 of the molar value.

Task: Reported pEC50, molecule O=C(N[C@@H]1CC[C@@]2(O)[C@H]3Cc4ccc(O)c5c4[C@@]2(CCN3CC2CC2)[C@H]1O5)c1ccc(Cl)c(Cl)c1.O=C(O)C(=O)O : ____
Output: 10.00
